Cited source for all entries: PubChem BioAssay AID1159580

Assay: chemical genetic growth profiling, strain panel (AID 1159580);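 note: tested at 20 µM; growth read once vehicle control cultures reached saturation at 30 °C; 1 = growth at the plate median or of vehicle wells; lower values mean less growth of the strain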
Conditions: S. cerevisiae deletion strains, growth OD, locus YML032C, strain rad52, hits give low values
In all, about 5,500 compounds went through this assay and about 2,000 (36%) were called active. About 18% were inconclusive and are not listed. Some of the results follow.
measuredProperty: normalized growth
Give your answer as a number; write no unit.

Examples with answers:
O=c1cc(-c2ccc(O)cc2)oc2cc(O[C@@H]3O[C@H](CO)[C@@H](O)[C@H](O)[C@H]3O[C@@H]3OC[C@](O)(CO)[C@H]3O)cc(O)c12 | 1
O=c1ccc2cc(O[C@@H]3O[C@H](CO)[C@@H](O)[C@H](O)[C@H]3O)c(O)cc2o1 | 1.01

Can you look up the measured normalized growth of `Cc1cc(O)c2c(c1O)C(=O)c1c(O)cc(C)c(O)c1C2=O` for me?
0.974

Note, next up: CC(=O)OC1CCC23C(=O)OC45CCC(C6=CC(=O)OC6)C4(C)CCC2C5CCC3(O)C1 (stereo unspecified)
1.01

Next entry: `COc1cc2ccc(=O)oc2c(OC)c1OC`
0.996

Now the compound `Cc1cccc(N(C)C(=S)Oc2ccc3ccccc3c2)c1`
0.991

----------
Experiment: chemical genetic growth profiling, strain panel (AID 1159580);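 note: tested at 20 µM; growth read once vehicle control cultures reached saturation at 30 °C; 1 = growth at the plate median or of vehicle wells; lower values mean less growth of the strain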
Details: S. cerevisiae deletion strains, growth OD, locus YKL009W, strain mrt4, hits give low values
The campaign covered roughly 5,500 compounds. About 2,000 (36%) were called active. Another 18% or so got no clear call; they are omitted. The list shows a part of the results.
measuredProperty: normalized growth
When you answer, write just the number.

Take a look at these entries with their results.
CC(=O)OCC(=O)[C@@]1(O)CCC2C3CCC4=CC(=O)CC[C@]4(C)[C@@]3(F)[C@@H](O)C[C@@]21C (some centres not stated) | 0.973
Cc1cccc(N(C)C(=S)Oc2ccc3ccccc3c2)c1 | 0.99
O=[N+]([O-])/N=C1/NCCN1Cc1ccc(Cl)cc1 | 1.01
CSCCC(NC=O)C(=O)NC(CC(C)C)C(=O)NC(Cc1ccccc1)C(=O)O (configuration not stated) | 1.01
C[C@]12CCC3c4ccc(O)cc4CCC3C1CC[C@@H]2OC(=O)CCC1CCCC1 (some centres not stated) | 0.986
Cn1cnc([N+](=O)[O-])c1Sc1ncnc2nc[nH]c12 | 0.983
CCC(=O)O[C@H]1CCC2C3CCc4cc(O)ccc4C3CC[C@@]21C (some centres not stated) | 0.986
COc1ccc(Cc2nccc3cc(OC)c(OC)cc23)cc1OC | 0.984
CC(=O)O[C@@H]1CC2C(C)(C)C(=O)[C@@H]3O[C@@H]3[C@]2(C)C2CC[C@]3(C)C(=CC(=O)O[C@H]3c3ccoc3)[C@@]21C (some centres not stated) | 0.976
O=C(O)c1cc2cc(Cl)ccc2[nH]1 | 1.01

normalized growth lookup needed for `COc1cc2c(cc1-c1coc3c4c(c(OC)cc3c1=O)OC(C)(C)C=C4)OCO2` , thanks.
1.01

Request: `Cn1c(=O)[nH]c(=O)c2[nH]cnc21`
0.998

Input CC(C(=O)O)c1ccc(N2Cc3ccccc3C2=O)cc1 (configuration not stated)
0.998

Record: COC(=O)C[C@H]1C(C)(C)C(OC(C)=O)[C@]2(O)C=C3C4CC(=O)O[C@@H](c5ccoc5)[C@]4(C)CCC3[C@@]1(C)C2=O (some centres not stated)
0.992

Now this one: `CCN(CC)CCNC(=O)COc1ccc(OC)cc1`
1.02

Moving on to the next compound: COc1cc(OC)c2c(c1Cl)OC1(C2=O)C(O)=CC(=O)CC1C (configuration not stated)
1.01

CC1=C(C(=O)O)N2C(=O)[C@@H](NC(=O)[C@H](N)C3=CCC=CC3)C2SC1 (some centres not stated) ?
1
